# System Under Test: Antibody No. 245.1
# Measurement Description: peptide blocking ELISA on plate-bound VISTA, peptide 2 ug/mL
Recorded percent reduction in ELISA signal values for a group of binders are listed next.
Give the value, in units of %, as a plain number.

Consider the worked cases shown below.
> print(dat)
                                     binder  units  endpoint.value
1  TCRLLGPVDKGHDVT (synthetic overlapping peptide from human VISTA) [Spiked Peptide 5 (TCRLLGPVDKGHDVT)]      %               7
2  MRNLTLLDSGLYCCL (synthetic overlapping peptide from human VISTA) [Spiked Peptide 21 (MRNLTLLDSGLYCCL)]      %              10
3  CVVYPSSSQESENIT (synthetic overlapping peptide from human VISTA) [Spiked Peptide 30 (CVVYPSSSQESENIT)]      %               0

Could you now look at the following binder, please?
**Q:** Please look up its percent reduction in ELISA signal: GHQAANTSHDLAQRH (synthetic overlapping peptide from human VISTA) [Spiked Peptide 15 (GHQAANTSHDLAQRH)]
**A:** 11

These entries and their values trace back to patent US20240132593A1.
